Hello, the source for this data is PubChem BioAssay AID488810, in case you need it.

Target: Type-1 angiotensin II receptor (Homo sapiens) (UniProt P30556)
Sequence (P30556 whole entry, looked up): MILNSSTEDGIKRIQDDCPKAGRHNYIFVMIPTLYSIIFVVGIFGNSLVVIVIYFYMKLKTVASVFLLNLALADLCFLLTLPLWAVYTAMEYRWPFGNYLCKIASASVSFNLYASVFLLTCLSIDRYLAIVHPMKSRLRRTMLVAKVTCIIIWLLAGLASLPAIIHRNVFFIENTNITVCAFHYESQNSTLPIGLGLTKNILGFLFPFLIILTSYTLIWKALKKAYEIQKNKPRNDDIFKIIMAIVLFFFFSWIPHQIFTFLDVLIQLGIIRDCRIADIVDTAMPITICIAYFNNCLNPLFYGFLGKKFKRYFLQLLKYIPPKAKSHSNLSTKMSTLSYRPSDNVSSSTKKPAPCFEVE
Assay: AGTR1 antagonism selectivity check – cell-based, CHO-K1 PathHunter, luminescence, selectivity assay for APJ antagonist project, SAR follow-up (AID 488810);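 note: agonist challenge with angiotensin II at 50 nM final near its EC80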
Details: CHO-K1 AGTR1 PathHunter beta-arrestin, antagonist mode
Calls of active or inactive are those of the source.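 Rule for the calls: active = compounds with IC50 below 20 µM; inactive = the rest.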
Possible outcomes: t = active, f = inactive

Cc1c(O)ccc2c1OC1(CC2c2ccccc2Cl)CC(C)(C)NC(=O)N1 (stereo not drawn)	f
Cc1c(C(=O)Oc2coc(CSc3ncccn3)cc2=O)cccc1[N+](=O)[O-]	f
Cc1ccc(C)c(NCC(=O)c2ccc(Cl)cc2)c1	t
CC(C)Oc1ccc(C(=O)Oc2coc(CSc3ncccn3)cc2=O)cc1	f
Cc1cc(C)nc(SCc2cc(=O)c(OC(=O)c3cccc([N+](=O)[O-])c3C)co2)n1	f
CC(C)(C)c1ccc(-n2nc(C#N)c(Cl)cc2=O)cc1	t
Cc1c(O)ccc2c1OC1(CC2c2ccccc2Cl)CC(C)(C)NC(=S)N1 (stereo not drawn)	f
Oc1cccc(CSc2ncccn2)c1	f
COc1ccccc1NCC(O)c1ccc(Cl)cc1 (stereo not drawn)	f
Cc1cc(C)nc(NNS(=O)(=O)c2c(F)cc(F)cc2Br)n1	t
Cc1cccc(C2CC3(CC(C)(C)NC(=S)N3)Oc3cc(O)cc(C)c32)c1 (stereo not drawn)	f
C=CCSC1=NC2(CC(c3ccccc3)c3c(C)cc(O)cc3O2)CC(C)(C)N1 (stereo not drawn)	f
Cc1ccc2nc(C)cc(C(=O)OCC(=O)c3ccc(Cl)c([N+](=O)[O-])c3)c2c1	t
CC(C)Cc1nc2oc3c(Cl)ncnc3c2c2c1CCC2	t
CCN(CC)S(=O)(=O)c1ccc(C(=O)Oc2coc(CSc3ncccn3)cc2=O)cc1	f
Cc1ccccc1NCC(=O)c1ccc(Cl)cc1	t
Cc1ccnc(SCc2cc(=O)c(OC(=O)c3ccccc3)co2)n1	f
Cc1ccc(C(=O)CNc2cc(C)ccc2C)cc1	t
O=C(Nc1nc2c(F)cc(F)cc2s1)c1ccccn1	t
CC(C)(C)c1ccc(C(=O)Oc2coc(CSc3ncccn3)cc2=O)cc1	f
O=C(Oc1coc(CSc2ncccn2)cc1=O)c1ccc(C(F)(F)F)cc1	f
CSC1=NC2(CC(c3ccccc3)c3cc(Cl)c(O)cc3O2)CC(C)(C)N1 (stereo not drawn)	f
CC1(C)CC2(CC(c3ccc(F)cc3)c3ccc(O)cc3O2)NC(=S)N1 (stereo not drawn)	f
